Measured attribute: melting point

Examples from the recorded data:
INSERT INTO assay_data (compound, recorded_measurement) VALUES
  ('CNc1cc(=O)n(-c2ccccc2)nc1-c1nc[nH]n1 [Compound 28]', '245 to 247 °C'),
  ('O=c1cc(O)c(-c2nc[nH]n2)nn1-c1ccccc1 [Compound 3]', '218 to 220 °C'),
  ('O=c1cc(Nc2ccncc2)c(-c2nc[nH]n2)nn1-c1ccccc1 [Compound 53]', '342 to 344 °C'),
  ('N=CNNC(=O)c1nn(-c2ccccc2)c(=O)cc1Sc1ccccc1 [Compound 8]', '236 to 238 °C'),
  ('CN(C)c1ccc(Nc2cc(=O)n(-c3ccc(Cl)cc3)nc2-c2nc[nH]n2)cc1 [Compound 65]', '276 to 279 °C'),
  ('C=CCOc1cc(=O)n(-c2ccc(Cl)cc2)nc1-c1nc[nH]n1 [Compound 73]', '172 to 175 °C');

Quick check: melting point of COc1cc(Nc2cc(=O)n(-c3ccc(Cl)cc3)nc2-c2nc[nH]n2)cc(OC)c1OC [Compound 61] ?
238 to 241 °C

And what about the compound O=c1cc(Oc2ccccc2)c(-c2nc[nH]n2)nn1-c1ccc(Cl)cc1 [Compound 25] ?
246 to 247 °C

---

Examples of compounds with documented melting point follow.

INSERT INTO results (compound, recorded_measurement) VALUES
  ('COc1ccc(-n2nc(-c3nc[nH]n3)c(Oc3ccccc3)cc2=O)cc1', '284 to 286 °C'),
  ('CCCc1cn(-c2cc(=O)n(-c3ccccc3)nc2C#N)nn1', '192 to 195 °C'),
  ('O=c1cc(Oc2ccccc2)c(-c2nc[nH]n2)nn1-c1ccccc1F', '265 to 267 °C'),
  ('O=c1cc(Nc2ccccc2)c(-c2nc[nH]n2)nn1-c1ccc(Cl)cc1', '244 to 246 °C');

Return reported melting point; argument: O=c1cc(Oc2ccccc2)c(-c2nc[nH]n2)cn1-c1ccccc1
275 to 276 °C

Field entry: Cc1ccsc1-c1nn(-c2ccccc2)c(=O)cc1Oc1ccccc1
212 to 214 °C

And then O=c1cc(NCCN2CCOCC2)c(-c2nc[nH]n2)nn1-c1ccccc1 , what is it?
251 to 258 °C

Let us now turn to [N-]=[N+]=Nc1cc(=O)n(-c2ccccc2)nc1C1=NCCN1
238 to 240 °C

// same read-out, input: C#CCNc1cc(=O)n(-c2ccc(Cl)cc2)nc1-c1nc[nH]n1
252 to 254 °C

Please answer likewise for C#CCCNc1cc(=O)n(-c2ccc(Cl)cc2)nc1-c1nc[nH]n1
176 to 177 °C

CN(C)CCNC(=O)c1nn(-c2ccccc2)c(=O)cc1Oc1ccccc1.Cl , same question.
138 to 141 °C

And for NNC(=O)c1nn(-c2ccccc2)c(=O)cc1Oc1ccccc1 ?
80 to 82 °C

---

Items are presented alongside their recorded melting point.

Known results for compounds:
INSERT INTO measurements (compound, measured_attribute, recorded_measurement) VALUES
  ('CN(C)CCNc1cc(=O)n(-c2ccccc2)nc1-c1nc[nH]n1', 'melting point', '211 to 214 °C'),
  ('CN(C)/C=N/C(=O)c1nn(-c2ccccc2)c(=O)cc1Oc1ccccc1', 'melting point', '175 to 176 °C'),
  ('CCOc1cc(=O)n(-c2ccccc2)nc1-c1nc[nH]n1', 'melting point', '195 to 197 °C'),
  ('O=c1cc(Oc2ccccc2)c(-c2nc[nH]n2)nn1-c1cccc(C(F)(F)F)c1', 'melting point', '257 to 258 °C'),
  ('CN1CCC(Nc2cc(=O)n(-c3ccc(Cl)cc3)nc2-c2nc[nH]n2)CC1 [Compound 67]', 'melting point', '270 to 272 °C');

Now turn to the next compound.
Recorded melting point of CN1CCN(c2ccc(Nc3cc(=O)n(-c4ccc(Cl)cc4)cc3-c3nc[nH]n3)cc2)CC1 , please.
218 to 221 °C
